Target: UniProtKB Q72547
Test: Inhibitory concentration required to inhibit recombinant HIV-1 reverse transcriptase
property_name: pIC50
Notebook: values listed as pIC50 are -log10 of the concentration (mol/L).

smiles_entry: COC(=O)/C=C/Cn1c(=O)c(C)cn([C@@H]2O[C@H](CO[Si](C)(C)C(C)(C)C)[C@@]3(OS(=O)(=O)C=C3N)[C@H]2O[Si](C)(C)C(C)(C)C)c1=O
measured_on: UniProtKB Q72547
pIC50: 4.52
//
smiles_entry: Cc1cn([C@@H]2O[C@H](CO[Si](C)(C)C(C)(C)C)[C@@]3(OS(=O)(=O)C=C3N)[C@H]2O[Si](C)(C)C(C)(C)C)c(=O)n(CCO)c1=O
measured_on: UniProtKB Q72547
pIC50: 5.51
//
smiles_entry: Cc1cn([C@@H]2O[C@H](CO[Si](C)(C)C(C)(C)C)[C@@]3(OS(=O)(=O)C=C3N)[C@H]2O[Si](C)(C)C(C)(C)C)c(=O)n(CC(=O)O)c1=O
measured_on: UniProtKB Q72547
pIC50: 4.82
//
smiles_entry: COC(=O)Cn1c(=O)c(C)cn([C@@H]2O[C@H](CO[Si](C)(C)C(C)(C)C)[C@@]3(OS(=O)(=O)C=C3N)[C@H]2O[Si](C)(C)C(C)(C)C)c1=O
measured_on: UniProtKB Q72547
pIC50: 5.52

Could you now look at the following compound, please?
### Prompt Which value of pIC50 has been reported for Cc1cn([C@@H]2O[C@H](CO[Si](C)(C)C(C)(C)C)[C@@]3(OS(=O)(=O)C=C3N)[C@H]2O[Si](C)(C)C(C)(C)C)c(=O)n(CC(=O)N(C)C)c1=O in the records?
### Response 5.46

====

Tested on: Human immunodeficiency virus 2
Experiment: Effective concentration required to inhibit HIV-2 induced cytopathicity in human MT-4 cell line
Type: functional, organism-based
Conditions: Human immunodeficiency virus 2, MT4
The entries below are paired with their reported EC50.

Study these solved cases before continuing.
smiles_entry: COC(=O)CCCCn1c(=O)c(C)cn([C@@H]2O[C@H](CO[Si](C)(C)C(C)(C)C)[C@@]3(OS(=O)(=O)C=C3N)[C@H]2O[Si](C)(C)C(C)(C)C)c1=O
EC50: > 142 µM

smiles_entry: Cc1cn([C@@H]2O[C@H](CO[Si](C)(C)C(C)(C)C)[C@@]3(OS(=O)(=O)C=C3N)[C@H]2O[Si](C)(C)C(C)(C)C)c(=O)n(C/C=C/CO)c1=O
EC50: > 2 µM

### Prompt Quick one: EC50 of Cc1cn([C@@H]2O[C@H](CO[Si](C)(C)C(C)(C)C)[C@@]3(OS(=O)(=O)C=C3N)[C@H]2O[Si](C)(C)C(C)(C)C)c(=O)n(CC(=O)O)c1=O ?
### Response > 155 µM

### Prompt Consider next the compound COC(=O)Cn1c(=O)c(C)cn([C@@H]2O[C@H](CO[Si](C)(C)C(C)(C)C)[C@@]3(OS(=O)(=O)C=C3N)[C@H]2O[Si](C)(C)C(C)(C)C)c1=O in the same way.
### Response > 152 µM

====

System: CCRF-CEM
Assay: Cytostatic concentration required to inhibit cell proliferation in human CEM cell line
Format: functional
Attribute: CC50

smiles_entry: Cc1cn([C@@H]2O[C@H](CO[Si](C)(C)C(C)(C)C)[C@@]3(OS(=O)(=O)C=C3N)[C@H]2O[Si](C)(C)C(C)(C)C)c(=O)n(CC(N)=O)c1=O
measurement: 13.3 µM
//
smiles_entry: CCCCOC(=O)CN(CCCn1c(=O)c(C)cn([C@@H]2O[C@H](CO[Si](C)(C)C(C)(C)C)[C@@]3(OS(=O)(=O)C=C3N)[C@H]2O[Si](C)(C)C(C)(C)C)c1=O)CC(=O)OCCCC
measurement: > 250 µM
//
smiles_entry: COC(=O)Cn1c(=O)c(C)cn([C@@H]2O[C@H](CO[Si](C)(C)C(C)(C)C)[C@@]3(OS(=O)(=O)C=C3N)[C@H]2O[Si](C)(C)C(C)(C)C)c1=O
measurement: > 152 µM
//
smiles_entry: COC(=O)/C=C/Cn1c(=O)c(C)cn([C@@H]2O[C@H](CO[Si](C)(C)C(C)(C)C)[C@@]3(OS(=O)(=O)C=C3N)[C@H]2O[Si](C)(C)C(C)(C)C)c1=O
measurement: 142 µM

We now examine a further compound.
### Prompt Could you share what CC50 was measured for CCOC(=O)CCCCCn1c(=O)c(C)cn([C@@H]2O[C@H](CO[Si](C)(C)C(C)(C)C)[C@@]3(OS(=O)(=O)C=C3N)[C@H]2O[Si](C)(C)C(C)(C)C)c1=O , tested on CCRF-CEM?
### Response 40.6 µM

====

Test system: CCRF-CEM
Assay: Cytostatic concentration required to inhibit cell proliferation in human CEM cell line
Type: functional
Hi! Could you tag entries with CC50 below 20 µM as True, and those at or above as False? Much appreciated.

Consider the worked cases shown below.
smiles_entry: Cc1cn([C@@H]2O[C@H](CO[Si](C)(C)C(C)(C)C)[C@@]3(OS(=O)(=O)C=C3N)[C@H]2O[Si](C)(C)C(C)(C)C)c(=O)n(CCCO)c1=O
qualitative_label: True
//
smiles_entry: Cc1cn([C@@H]2O[C@H](CO[Si](C)(C)C(C)(C)C)[C@@]3(OS(=O)(=O)C=C3N)[C@H]2O[Si](C)(C)C(C)(C)C)c(=O)n(C/C=C/CO)c1=O
qualitative_label: True

### Prompt Confirm or reject: CC50 of Cc1cn([C@@H]2O[C@H](CO[Si](C)(C)C(C)(C)C)[C@@]3(OS(=O)(=O)C=C3N)[C@H]2O[Si](C)(C)C(C)(C)C)c(=O)n(CC(=O)O)c1=O lies strictly below 20 µM
### Response False

### Prompt Another compound to check: COC(=O)CCCCn1c(=O)c(C)cn([C@@H]2O[C@H](CO[Si](C)(C)C(C)(C)C)[C@@]3(OS(=O)(=O)C=C3N)[C@H]2O[Si](C)(C)C(C)(C)C)c1=O
### Response False

### Prompt Input Cc1cn([C@@H]2O[C@H](CO[Si](C)(C)C(C)(C)C)[C@@]3(OS(=O)(=O)C=C3N)[C@H]2O[Si](C)(C)C(C)(C)C)c(=O)n(CCc2cccc3cc[nH]c23)c1=O
### Response False

### Prompt Entry to check: Cc1cn([C@@H]2O[C@H](CO[Si](C)(C)C(C)(C)C)[C@@]3(OS(=O)(=O)C=C3N)[C@H]2O[Si](C)(C)C(C)(C)C)c(=O)n(CC2CC2)c1=O
### Response False

### Prompt What do we get for CNC(=O)CCCCCn1c(=O)c(C)cn([C@@H]2O[C@H](CO[Si](C)(C)C(C)(C)C)[C@@]3(OS(=O)(=O)C=C3N)[C@H]2O[Si](C)(C)C(C)(C)C)c1=O ?
### Response False

### Prompt And what about the compound Cc1cn([C@@H]2O[C@H](CO[Si](C)(C)C(C)(C)C)[C@@]3(OS(=O)(=O)C=C3N)[C@H]2O[Si](C)(C)C(C)(C)C)c(=O)n(CCO)c1=O ?
### Response True

### Prompt // same read-out, input: Cc1cn([C@@H]2O[C@H](CO[Si](C)(C)C(C)(C)C)[C@@]3(OS(=O)(=O)C=C3N)[C@H]2O[Si](C)(C)C(C)(C)C)c(=O)n(CCBr)c1=O
### Response False

### Prompt What do we get for Cc1cn([C@@H]2O[C@H](CO[Si](C)(C)C(C)(C)C)[C@@]3(OS(=O)(=O)C=C3N)[C@H]2O[Si](C)(C)C(C)(C)C)c(=O)n(CCc2ccccc2)c1=O ?
### Response True

### Prompt Here is the next compound: Cc1cn([C@@H]2O[C@H](CO[Si](C)(C)C(C)(C)C)[C@@]3(OS(=O)(=O)C=C3N)[C@H]2O[Si](C)(C)C(C)(C)C)c(=O)n(CC(=O)N(C)C)c1=O
### Response False

====

Target: Human immunodeficiency virus type 1 reverse transcriptase (Human immunodeficiency virus 1)
Assay: Inhibitory concentration required to inhibit recombinant HIV-1 reverse transcriptase
pIC50: −log10 of the molar value.
Reported pIC50 values are given for each entry in this list.

smiles_entry: Cc1cn([C@@H]2O[C@H](CO[Si](C)(C)C(C)(C)C)[C@@]3(OS(=O)(=O)C=C3N)[C@H]2O[Si](C)(C)C(C)(C)C)c(=O)n(CCc2ccccc2)c1=O
measurement: < 3.30

### Prompt State the recorded pIC50 for this entry: Cc1cn([C@@H]2O[C@H](CO[Si](C)(C)C(C)(C)C)[C@@]3(OS(=O)(=O)C=C3N)[C@H]2O[Si](C)(C)C(C)(C)C)c(=O)n(CC2CC2)c1=O
### Response < 3.30

### Prompt And what about the compound Cc1cn([C@@H]2O[C@H](CO[Si](C)(C)C(C)(C)C)[C@@]3(OS(=O)(=O)C=C3N)[C@H]2O[Si](C)(C)C(C)(C)C)c(=O)n(CCCN(CC(=O)O)CC(=O)O)c1=O ?
### Response < 3.30

### Prompt How about Cc1cn([C@@H]2O[C@H](CO[Si](C)(C)C(C)(C)C)[C@@]3(OS(=O)(=O)C=C3N)[C@H]2O[Si](C)(C)C(C)(C)C)c(=O)n(CCc2cccc3cc[nH]c23)c1=O ?
### Response < 3.30

### Prompt Quick one: Cc1cn([C@@H]2O[C@H](CO[Si](C)(C)C(C)(C)C)[C@@]3(OS(=O)(=O)C=C3N)[C@H]2O[Si](C)(C)C(C)(C)C)c(=O)n(CCC[N+](C)(C)C)c1=O.[I-]
### Response 4.96
